Data origin: patent US5081232A

Catalogue of compounds with associated Brain, % injected dose/organ
PROTOCOL_DETAILS: Animal biodistribution (in vivo, i.v. injection)
TEST_CONDITIONS: rats, 60 min p.i.
Output spec: scalar in % injected dose/organ, unitless text.

# COMPOUND, Brain, % injected dose/organ (% injected dose/organ)
measured = [
    ("O=[N][99Tc]([Cl])([Cl])[Cl].c1ccc(-c2ccccn2)nc1 [[^99 Tc(NO)Cl3 (Bipy)]]", 0.04),
    ("O=[N][Tc+][Cl].[C-]#[N+]C(C)(C)C.[C-]#[N+]C(C)(C)C.[C-]#[N+]C(C)(C)C.[C-]#[N+]C(C)(C)C [[^99 Tc(NO)Cl(t-BuCN)4]^+]", 0.04),
    ("O=[N][99Tc]1([Cl])([Cl])([Cl])[N]2C=CC=c3ccc4c(c32)[N]1C=CC=4 [[^99 Tc(NO)(1,10 phen)Cl3]°]", 0.04),
    ("CP(C)CCP(C)C.CP(C)CCP(C)C.N#[O+].[99Tc+].[Cl-].[Cl-]", 0.01),
    ("O=[N][99Tc-]([Cl])([Cl])([Cl])[Cl] [[^99m TcNOCl4]^-]", 0.05),
]

Note: attention shifts to another entry.
Briefly, Brain, % injected dose/organ measured for CC(=O)C=C(C)[O][99Tc-]([Cl])([Cl])([Cl])[N]=O [[^99 Tc(NO)Cl3 (acac)]^-] : 0.05

====

Catalogue of compounds with associated Heart/Muscle Counts/Gram ratio
PROTOCOL_DETAILS: Animal biodistribution (in vivo, i.v. injection)
TEST_CONDITIONS: rats, 2 min p.i.

Briefly, Heart/Muscle Counts/Gram ratio measured for CC(=O)C=C(C)[O][99Tc-]([Cl])([Cl])([Cl])[N]=O [[^99 Tc(NO)Cl3 (acac)]^-] : 2.19

Briefly, Heart/Muscle Counts/Gram ratio measured for O=[N][99Tc-]([Cl])([Cl])([Cl])[Cl] [[^99m TcNOCl4]^-] : 2.14

Briefly, Heart/Muscle Counts/Gram ratio measured for CP(C)CCP(C)C.CP(C)CCP(C)C.N#[O+].[99Tc+].[Cl-].[Cl-] : 1.85

Briefly, Heart/Muscle Counts/Gram ratio measured for O=[N][99Tc]([Cl])([Cl])[Cl].c1ccc(-c2ccccn2)nc1 [[^99 Tc(NO)Cl3 (Bipy)]] : 1.69

Briefly, Heart/Muscle Counts/Gram ratio measured for O=[N][99Tc]1([Cl])([Cl])([Cl])[N]2C=CC=c3ccc4c(c32)[N]1C=CC=4 [[^99 Tc(NO)(1,10 phen)Cl3]°] : 1.99

====

Catalogue of compounds with associated Muscle, % injected dose/organ
PROTOCOL_DETAILS: Animal biodistribution (in vivo, i.v. injection)
TEST_CONDITIONS: rats, 2 min p.i., muscle taken as 43% of body weight
Output spec: scalar in % injected dose/organ, unitless text.

See these solved cases before continuing.
# COMPOUND, Muscle, % injected dose/organ [% injected dose/organ]
records = [
    ("O=[N][99Tc-]([Cl])([Cl])([Cl])[Cl] [[^99m TcNOCl4]^-]", 30.35),
    ("O=[N][Tc+][Cl].[C-]#[N+]C(C)(C)C.[C-]#[N+]C(C)(C)C.[C-]#[N+]C(C)(C)C.[C-]#[N+]C(C)(C)C [[^99 Tc(NO)Cl(t-BuCN)4]^+]", 21.45),
    ("CC(=O)C=C(C)[O][99Tc-]([Cl])([Cl])([Cl])[N]=O [[^99 Tc(NO)Cl3 (acac)]^-]", 27.9),
]

Briefly, Muscle, % injected dose/organ measured for O=[N][99Tc]([Cl])([Cl])[Cl].c1ccc(-c2ccccn2)nc1 [[^99 Tc(NO)Cl3 (Bipy)]] : 24.17

Briefly, Muscle, % injected dose/organ measured for CP(C)CCP(C)C.CP(C)CCP(C)C.N#[O+].[99Tc+].[Cl-].[Cl-] : 27.00

Briefly, Muscle, % injected dose/organ measured for O=[N][99Tc]1([Cl])([Cl])([Cl])[N]2C=CC=c3ccc4c(c32)[N]1C=CC=4 [[^99 Tc(NO)(1,10 phen)Cl3]°] : 22.83

====

PROTOCOL_DETAILS: Animal biodistribution (in vivo, i.v. injection)
TEST_CONDITIONS: rats, 2 min p.i.
READOUT_KIND: Brain, % injected dose/organ (% injected dose/organ)
Output spec: scalar in % injected dose/organ, unitless text.

See these solved cases before continuing.
# COMPOUND, READOUT_KIND, QUANTITY_UNIT, RESULT
data = [
    ("O=[N][99Tc]1([Cl])([Cl])([Cl])[N]2C=CC=c3ccc4c(c32)[N]1C=CC=4 [[^99 Tc(NO)(1,10 phen)Cl3]°]", "Brain, % injected dose/organ", "% injected dose/organ", 0.08),
    ("CP(C)CCP(C)C.CP(C)CCP(C)C.N#[O+].[99Tc+].[Cl-].[Cl-]", "Brain, % injected dose/organ", "% injected dose/organ", 0.04),
    ("O=[N][99Tc]([Cl])([Cl])[Cl].c1ccc(-c2ccccn2)nc1 [[^99 Tc(NO)Cl3 (Bipy)]]", "Brain, % injected dose/organ", "% injected dose/organ", 0.06),
    ("O=[N][99Tc-]([Cl])([Cl])([Cl])[Cl] [[^99m TcNOCl4]^-]", "Brain, % injected dose/organ", "% injected dose/organ", 0.09),
    ("CC(=O)C=C(C)[O][99Tc-]([Cl])([Cl])([Cl])[N]=O [[^99 Tc(NO)Cl3 (acac)]^-]", "Brain, % injected dose/organ", "% injected dose/organ", 0.10),
]

Note: attention shifts to another entry.
Briefly, Brain, % injected dose/organ measured for O=[N][Tc+][Cl].[C-]#[N+]C(C)(C)C.[C-]#[N+]C(C)(C)C.[C-]#[N+]C(C)(C)C.[C-]#[N+]C(C)(C)C [[^99 Tc(NO)Cl(t-BuCN)4]^+] : 0.04

====

Catalogue of compounds with associated Kidney + Urine, % injected dose/organ
PROTOCOL_DETAILS: Animal biodistribution (in vivo, i.v. injection)
TEST_CONDITIONS: rats, 60 min p.i.
Output spec: scalar in % injected dose/organ, unitless text.

# COMPOUND, QUANTITY_UNIT, RESULT
rows = [
    ("O=[N][Tc+][Cl].[C-]#[N+]C(C)(C)C.[C-]#[N+]C(C)(C)C.[C-]#[N+]C(C)(C)C.[C-]#[N+]C(C)(C)C [[^99 Tc(NO)Cl(t-BuCN)4]^+]", "% injected dose/organ", 8.15),
    ("O=[N][99Tc]([Cl])([Cl])[Cl].c1ccc(-c2ccccn2)nc1 [[^99 Tc(NO)Cl3 (Bipy)]]", "% injected dose/organ", 22.96),
    ("CC(=O)C=C(C)[O][99Tc-]([Cl])([Cl])([Cl])[N]=O [[^99 Tc(NO)Cl3 (acac)]^-]", "% injected dose/organ", 13.55),
    ("O=[N][99Tc]1([Cl])([Cl])([Cl])[N]2C=CC=c3ccc4c(c32)[N]1C=CC=4 [[^99 Tc(NO)(1,10 phen)Cl3]°]", "% injected dose/organ", 16.05),
    ("O=[N][99Tc-]([Cl])([Cl])([Cl])[Cl] [[^99m TcNOCl4]^-]", "% injected dose/organ", 14.61),
]

Briefly, Kidney + Urine, % injected dose/organ measured for CP(C)CCP(C)C.CP(C)CCP(C)C.N#[O+].[99Tc+].[Cl-].[Cl-] : 42.60

====

Catalogue of compounds with associated Lung, % injected dose/organ
PROTOCOL_DETAILS: Animal biodistribution (in vivo, i.v. injection)
TEST_CONDITIONS: rats, 60 min p.i.
Output spec: scalar in % injected dose/organ, unitless text.

Briefly, Lung, % injected dose/organ measured for CC(=O)C=C(C)[O][99Tc-]([Cl])([Cl])([Cl])[N]=O [[^99 Tc(NO)Cl3 (acac)]^-] : 0.53

Briefly, Lung, % injected dose/organ measured for O=[N][Tc+][Cl].[C-]#[N+]C(C)(C)C.[C-]#[N+]C(C)(C)C.[C-]#[N+]C(C)(C)C.[C-]#[N+]C(C)(C)C [[^99 Tc(NO)Cl(t-BuCN)4]^+] : 0.12

Briefly, Lung, % injected dose/organ measured for CP(C)CCP(C)C.CP(C)CCP(C)C.N#[O+].[99Tc+].[Cl-].[Cl-] : 0.33

Briefly, Lung, % injected dose/organ measured for O=[N][99Tc]1([Cl])([Cl])([Cl])[N]2C=CC=c3ccc4c(c32)[N]1C=CC=4 [[^99 Tc(NO)(1,10 phen)Cl3]°] : 0.23

Briefly, Lung, % injected dose/organ measured for O=[N][99Tc-]([Cl])([Cl])([Cl])[Cl] [[^99m TcNOCl4]^-] : 1.71

Briefly, Lung, % injected dose/organ measured for O=[N][99Tc]([Cl])([Cl])[Cl].c1ccc(-c2ccccn2)nc1 [[^99 Tc(NO)Cl3 (Bipy)]] : 0.10
